Target Or System: T1, TNF-alpha (human, UniProt P01375 77-233)
T1 construct: also called TNFα; TNF-α
T1 sequence (P01375 77-233 limits assumed): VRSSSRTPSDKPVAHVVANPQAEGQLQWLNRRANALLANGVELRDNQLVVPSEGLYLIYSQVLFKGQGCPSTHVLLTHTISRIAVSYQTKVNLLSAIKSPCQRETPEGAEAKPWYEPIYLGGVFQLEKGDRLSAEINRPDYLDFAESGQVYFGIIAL
Test: phage ELISA
Experimental Readout: binding result

* I006D08 (scFv) scFv: QVQLQQSGAEVKKPGSSVRVSCKASGGTFNNNAINWVRQAPGQGLEWMGGIIPMFGTAKYSQNFQGRVAITADESTSTASMELSSLRSEDTAVYYCARSRDLLLFPHYGMDVWGRGTMVTVSSGGGGSGGGGSGGGGSAFSSELTQDPAVSVALGQTVRVTCQGDSLRSYYASWYQQKPGQAPVLVIYGKNNRPSGIPDRFSGSSSGNTASLTITGAQAEDEADYYCNSRDSSGNHWVFGGGTELTVLG | no binding
* I025B09 (scFv, also called I0025B09) scFv: QVHLVQSGAEVKKPGSSVKVSCRASGGSFNHAISWVRQAPGRGLEWMGGILPMYGTANYAQKFQGRVTITADKLTNTVYMDLSRLRYEDTAVYYCARELGLSIVGATTGALDMWGKGTLVTVSSGGGGSGGGGSGGGGSAQSVLTQPPSVSAAPGQKVTISCSGSSSNIGNNYVSWYQQIPGTAPKLLIYENNKRPSGIPDRFSGSKSGASATLDITGLQTGDEADYYCGTWHSSQVVFGGGTKLTVLG | no binding
* I075A02 (scFv) scFv: QVQLVQSGAEVKKPGSSVKVSCRASGGSFNHAISWVRQAPGRGLEWMGGILPMYGTANYAQKFQGRVTITADKLTNTVYMDLSRLRYEDTAVYYCARELGLSIVGATTGALDMWGRGTLVTVSSGGGGSGGGGSGGGGSAQSVVTQPPSASGTPGQRVTVSCSGGRSNIGSNTVSWYQQLPGTAPKLLIYSNDERPSGVPDRFSGSNSGTSASLAISGLQSEDEADYYCAAWDDSLNGVAFGGGTKLTVLG | no binding

Ref: patent US20110293610A1
